Sourced from the NIST ThermoML archive (doi:10.1021/je900550v)

details: 330.41 K; 101.33 kPa; Liquid; Pulse-echo method
parameter: speed of sound (m/s)
Enter your answer as a number in m/s; do not include the unit.

Recorded speed of sound for C[NH2+]CCO.O=C[O-] [2-hydroxy-N-methylethanaminium formate] , please? 1752.7

Recorded speed of sound for CC(C)C(=O)[O-].C[NH2+]CCO [2-hydroxy-N-methylethanaminium isobutyrate] , please? 1519.9

Recorded speed of sound for CCCCC(=O)[O-].C[NH2+]CCO [2-hydroxy-N-methylethanaminium pentanoate] , please? 1449.3

Recorded speed of sound for CCC(=O)[O-].C[NH2+]CCO [2-hydroxy-N-methylethanaminium propionate] , please? 1594.1

Now for a further molecule.
Recorded speed of sound for CCCC(=O)[O-].C[NH2+]CCO [N-methyl-2-hydroxyethylammonium butanoate] , please? 1513.5

---

Some compounds, each annotated with its measured speed of sound.
details: 304.15 K; 101.33 kPa; Liquid; Pulse-echo method
Enter your answer as a number in m/s; do not include the unit.

Below, 2 compounds whose answers are already recorded.
Recorded speed of sound for CC(C)C(=O)[O-].C[NH2+]CCO [2-hydroxy-N-methylethanaminium isobutyrate] , please? 1594.3

Recorded speed of sound for CCCC(=O)[O-].C[NH2+]CCO [N-methyl-2-hydroxyethylammonium butanoate] , please? 1595.5

Continuing:
Recorded speed of sound for CCC(=O)[O-].C[NH2+]CCO [2-hydroxy-N-methylethanaminium propionate] , please? 1672.3

Recorded speed of sound for C[NH2+]CCO.O=C[O-] [2-hydroxy-N-methylethanaminium formate] , please? 1803.6

Recorded speed of sound for CCCCC(=O)[O-].C[NH2+]CCO [2-hydroxy-N-methylethanaminium pentanoate] , please? 1530

---

conditions: 278.65 K; 101.33 kPa; Liquid; Vibrating tube method
parameter: mass density (kg/m3)
Enter your answer as a number in kg/m3; do not include the unit.

Below, 5 molecules whose answers are already recorded.
Recorded mass density for CCC(=O)[O-].C[NH2+]CCO [2-hydroxy-N-methylethanaminium propionate] , please? 1083.96

Recorded mass density for CC(=O)[O-].C[NH2+]CCO [N-methyl-2-hydroxyethylammonium acetate] , please? 1112.54

Recorded mass density for C[NH2+]CCO.O=C[O-] [2-hydroxy-N-methylethanaminium formate] , please? 1139.13

Recorded mass density for CCCC(=O)[O-].C[NH2+]CCO [N-methyl-2-hydroxyethylammonium butanoate] , please? 1052.38

Recorded mass density for CC(C)C(=O)[O-].C[NH2+]CCO [2-hydroxy-N-methylethanaminium isobutyrate] , please? 1055.8

Continuing:
Recorded mass density for CCCCC(=O)[O-].C[NH2+]CCO [2-hydroxy-N-methylethanaminium pentanoate] , please? 1029.35

---

conditions: 329.4 K; 101.33 kPa; Liquid; Vibrating tube method
Some compounds, each annotated with its measured mass density.
Enter your answer as a number in kg/m3; do not include the unit.

Recorded mass density for CCC(=O)[O-].C[NH2+]CCO [2-hydroxy-N-methylethanaminium propionate] , please? 1050.59

Recorded mass density for C[NH2+]CCO.O=C[O-] [2-hydroxy-N-methylethanaminium formate] , please? 1110.92

Recorded mass density for CC(=O)[O-].C[NH2+]CCO [N-methyl-2-hydroxyethylammonium acetate] , please? 1081.71

Recorded mass density for CCCCC(=O)[O-].C[NH2+]CCO [2-hydroxy-N-methylethanaminium pentanoate] , please? 994.879

Recorded mass density for CC(C)C(=O)[O-].C[NH2+]CCO [2-hydroxy-N-methylethanaminium isobutyrate] , please? 1022.82

Now for a further compound.
Recorded mass density for CCCC(=O)[O-].C[NH2+]CCO [N-methyl-2-hydroxyethylammonium butanoate] , please? 1017.9

---

conditions: 312.91 K; 101.33 kPa; Liquid; Vibrating tube method
Some compounds, each annotated with its measured mass density.
Enter your answer as a number in kg/m3; do not include the unit.

Recorded mass density for CCCC(=O)[O-].C[NH2+]CCO [N-methyl-2-hydroxyethylammonium butanoate] , please? 1029.32

Recorded mass density for C[NH2+]CCO.O=C[O-] [2-hydroxy-N-methylethanaminium formate] , please? 1120.02

Recorded mass density for CCC(=O)[O-].C[NH2+]CCO [2-hydroxy-N-methylethanaminium propionate] , please? 1061.66

Recorded mass density for CC(=O)[O-].C[NH2+]CCO [N-methyl-2-hydroxyethylammonium acetate] , please? 1091.94

Recorded mass density for CCCCC(=O)[O-].C[NH2+]CCO [2-hydroxy-N-methylethanaminium pentanoate] , please? 1006.29

Now for a further compound.
Recorded mass density for CC(C)C(=O)[O-].C[NH2+]CCO [2-hydroxy-N-methylethanaminium isobutyrate] , please? 1033.82

---

conditions: 313.4 K; 101.33 kPa; Liquid; Pulse-echo method
parameter: speed of sound (m/s)
Enter your answer as a number in m/s; do not include the unit.

Below, 4 molecules whose answers are already recorded.
Recorded speed of sound for C[NH2+]CCO.O=C[O-] [2-hydroxy-N-methylethanaminium formate] , please? 1785.6

Recorded speed of sound for CCCCC(=O)[O-].C[NH2+]CCO [2-hydroxy-N-methylethanaminium pentanoate] , please? 1501.4

Recorded speed of sound for CCC(=O)[O-].C[NH2+]CCO [2-hydroxy-N-methylethanaminium propionate] , please? 1645

Recorded speed of sound for CCCC(=O)[O-].C[NH2+]CCO [N-methyl-2-hydroxyethylammonium butanoate] , please? 1566.7

Now for a further molecule.
Recorded speed of sound for CC(C)C(=O)[O-].C[NH2+]CCO [2-hydroxy-N-methylethanaminium isobutyrate] , please? 1568.3

---

conditions: 288.65 K; 101.33 kPa; Liquid; Pulse-echo method
parameter: speed of sound (m/s)
Enter your answer as a number in m/s; do not include the unit.

Recorded speed of sound for CCCC(=O)[O-].C[NH2+]CCO [N-methyl-2-hydroxyethylammonium butanoate] , please? 1645.6

Recorded speed of sound for CCCCC(=O)[O-].C[NH2+]CCO [2-hydroxy-N-methylethanaminium pentanoate] , please? 1579.5

Recorded speed of sound for C[NH2+]CCO.O=C[O-] [2-hydroxy-N-methylethanaminium formate] , please? 1833.9

Recorded speed of sound for CCC(=O)[O-].C[NH2+]CCO [2-hydroxy-N-methylethanaminium propionate] , please? 1718.5

Continuing:
Recorded speed of sound for CC(C)C(=O)[O-].C[NH2+]CCO [2-hydroxy-N-methylethanaminium isobutyrate] , please? 1638.5

---

Some molecules, each annotated with its measured mass density.
conditions: 333.41 K; 101.33 kPa; Liquid; Vibrating tube method
Enter your answer as a number in kg/m3; do not include the unit.

Below, 5 molecules whose answers are already recorded.
Recorded mass density for CCC(=O)[O-].C[NH2+]CCO [2-hydroxy-N-methylethanaminium propionate] , please? 1047.85

Recorded mass density for CCCCC(=O)[O-].C[NH2+]CCO [2-hydroxy-N-methylethanaminium pentanoate] , please? 992.064

Recorded mass density for CCCC(=O)[O-].C[NH2+]CCO [N-methyl-2-hydroxyethylammonium butanoate] , please? 1015.07

Recorded mass density for C[NH2+]CCO.O=C[O-] [2-hydroxy-N-methylethanaminium formate] , please? 1108.82

Recorded mass density for CC(C)C(=O)[O-].C[NH2+]CCO [2-hydroxy-N-methylethanaminium isobutyrate] , please? 1020.1

Now for a further molecule.
Recorded mass density for CC(=O)[O-].C[NH2+]CCO [N-methyl-2-hydroxyethylammonium acetate] , please? 1079.19

---

Some compounds, each annotated with its measured speed of sound.
conditions: 329.9 K; 101.33 kPa; Liquid; Pulse-echo method
Enter your answer as a number in m/s; do not include the unit.

Recorded speed of sound for C[NH2+]CCO.O=C[O-] [2-hydroxy-N-methylethanaminium formate] , please? 1753.6

Recorded speed of sound for CCC(=O)[O-].C[NH2+]CCO [2-hydroxy-N-methylethanaminium propionate] , please? 1595.6

Recorded speed of sound for CCCC(=O)[O-].C[NH2+]CCO [N-methyl-2-hydroxyethylammonium butanoate] , please? 1515.1

Continuing:
Recorded speed of sound for CC(C)C(=O)[O-].C[NH2+]CCO [2-hydroxy-N-methylethanaminium isobutyrate] , please? 1521.3

Recorded speed of sound for CCCCC(=O)[O-].C[NH2+]CCO [2-hydroxy-N-methylethanaminium pentanoate] , please? 1450.8

---

settings: 303.9 K; 101.33 kPa; Liquid; Vibrating tube method
parameter: mass density (kg/m3)
Enter your answer as a number in kg/m3; do not include the unit.

Below, 5 compounds whose answers are already recorded.
Recorded mass density for CCCC(=O)[O-].C[NH2+]CCO [N-methyl-2-hydroxyethylammonium butanoate] , please? 1035.38

Recorded mass density for CC(=O)[O-].C[NH2+]CCO [N-methyl-2-hydroxyethylammonium acetate] , please? 1097.4

Recorded mass density for CC(C)C(=O)[O-].C[NH2+]CCO [2-hydroxy-N-methylethanaminium isobutyrate] , please? 1039.68

Recorded mass density for C[NH2+]CCO.O=C[O-] [2-hydroxy-N-methylethanaminium formate] , please? 1125.04

Recorded mass density for CCC(=O)[O-].C[NH2+]CCO [2-hydroxy-N-methylethanaminium propionate] , please? 1067.57

Now for a further compound.
Recorded mass density for CCCCC(=O)[O-].C[NH2+]CCO [2-hydroxy-N-methylethanaminium pentanoate] , please? 1012.37
